# testTarget: oestrogen receptor alpha (ERα) (Homo sapiens, UniProt P03372)
# Construct: gene ESR1
# Sequence (P03372 whole entry): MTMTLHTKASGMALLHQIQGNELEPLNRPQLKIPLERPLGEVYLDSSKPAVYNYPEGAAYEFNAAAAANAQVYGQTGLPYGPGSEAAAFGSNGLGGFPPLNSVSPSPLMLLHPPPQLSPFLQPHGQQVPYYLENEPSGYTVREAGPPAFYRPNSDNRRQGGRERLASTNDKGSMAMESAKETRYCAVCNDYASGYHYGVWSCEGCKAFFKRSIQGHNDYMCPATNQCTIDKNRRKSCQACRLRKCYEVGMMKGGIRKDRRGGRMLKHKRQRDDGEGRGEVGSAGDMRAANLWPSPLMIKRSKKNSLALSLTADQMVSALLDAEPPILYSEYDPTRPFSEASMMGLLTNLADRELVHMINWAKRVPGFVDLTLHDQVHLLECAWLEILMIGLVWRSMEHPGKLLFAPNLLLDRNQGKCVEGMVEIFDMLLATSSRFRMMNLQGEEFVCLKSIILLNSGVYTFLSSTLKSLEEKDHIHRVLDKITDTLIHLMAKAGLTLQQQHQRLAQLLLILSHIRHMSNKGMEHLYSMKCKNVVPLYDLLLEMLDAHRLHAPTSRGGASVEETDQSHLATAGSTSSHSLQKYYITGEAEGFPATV
# procedureSummary: HitHunter Estrogen Assay Kit competitive binding (enzyme fragment complementation); supported by ERE-luciferase inhibition in MCF-7 cells
measureName: EC50

[[record]]
compound = "C[C@H]1COC2=C1C(=O)C(=O)c1c2ccc2c1CCCC2(C)C [CPT, Cryptotanshinone]"
measurename = "EC50"
readoutvalue = "~9.68 nM"

